B1: Twister Ribozyme (parent)
chain: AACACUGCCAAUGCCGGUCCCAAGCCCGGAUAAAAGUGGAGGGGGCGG

variants of: B1; assay: self-cleavage, relative activity (ratio to wild type); higher = more cleavage; co-transcriptional
Label scheme for self-cleavage: lower than 0.1 is N, 0.1 and above is Y.

Example entries begin here.
variant notation	group
U6G C27G	N
C8G A30G	Y
C26U G41C	Y
C19U G43A	Y
G29A G47A	Y

// query Given G44C G47A , state whether its self-cleavage is at least 0.1.
// result Y

// query Given A1U C15G , state whether its self-cleavage is at least 0.1.
// result N

// query Exam item: decide whether the reported self-cleavage for A1C U18A is at least 0.1.
// result Y

// query Is self-cleavage at least 0.1? Consider A11C G42C
// result Y

// query Test whether the variant A2U G42C records self-cleavage of 0.1 or higher.
// result Y

// query Evaluate A11G A40G : self-cleavage at minimum 0.1?
// result Y

// query Confirm if self-cleavage reported for the variant G7A is 0.1 or above.
// result Y

// query Does the variant C14G A40C have recorded self-cleavage that is 0.1 or more?
// result N

// query Tell me whether self-cleavage is at least 0.1 here: A34G G39A
// result Y

// query # bool: self-cleavage of U12G G13U >= 0.1
// result Y

// query Hi team, for G13U C46G , is the recorded self-cleavage at or above 0.1?
// result Y

// query // inclusive: self-cleavage at least 0.1? input: G17U U18C
// result Y

// query For this variant, is measured self-cleavage 0.1 or higher? C26A G38U
// result Y

// query Check the entry A2U G38U : does self-cleavage equal or exceed 0.1?
// result Y

// query // inclusive: self-cleavage at least 0.1? input: G7C U18G
// result N

// query Kindly determine if self-cleavage recorded for A1C C27G is above or exactly 0.1.
// result Y

// query Given C20A G38C , state whether its self-cleavage is at least 0.1.
// result N
